Value source: patent US20230331679A1

Recorded inhibitory effect on Aβ42 aggregation (ThT NFI at 482 nm) for the following compounds
target: Aβ42 (Homo sapiens); construct: commercially available β-amyloid peptide (1-42), human; purchased marck (so in the source) PP69-.025 mg; experiment: ThT binding assay, inhibition of Aβ42 fibrillar assembly; format: biochemical; settings: 1:1 molar ratio; 10 µM Aβ42, 10 µM inhibitor, 72 h
Sequence (P05067 672-713 limits assumed): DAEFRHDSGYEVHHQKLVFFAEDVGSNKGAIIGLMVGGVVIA

Task item: Please report the recorded inhibitory effect on Aβ42 aggregation (ThT NFI at 482 nm) for CN(C)c1ccc(C#Cc2ccc3c4c(cccc24)C(=O)N(CCOCCO)C3=O)cc1 .
Reply: ~25%

Task item: Proceed to CN(C)c1ccc2c3c(cccc13)C(=O)N(CC[N+](C)(C)C)C2=O
Reply: ~7%

Task item: Proceed to CN(C)c1ccc(C#Cc2ccc3c4c(cccc24)C(=O)N(CCN)C3=O)cc1
Reply: ~38%

Task item: Proceed to C[N+](C)(C)CCN1C(=O)c2cccc3c(C#Cc4ccccc4)ccc(c23)C1=O
Reply: ~5%

Task item: Proceed to C[N+](C)(C)CCN1C(=O)c2cccc3cccc(c23)C1=O
Reply: ~ 10%

Task item: Proceed to CN(C)c1ccc(C#Cc2ccc3c4c(cccc24)C(=O)N(CC[N+](C)(C)C)C3=O)cc1
Reply: ~ 45%
